log10 of GI50: recorded values
Tested on: HCT-116
Experiment: Growth inhibition of human HCT116 cells after 72 hrs by alamar blue assay
Format: functional
Conditions: HCT-116, 72 h
valueType: log10 of GI50 (log10 of the value in nM)

| inputSmiles | log10 of GI50 |
| --- | --- |
| CC(=O)Nc1ccc2ccn(-c3cc(NCCCCO)n4ncc(C#N)c4n3)c2c1 | 3.45 |
| CC(=O)Nc1ccc2c(c1)c(-c1cc(NC3CC3)n3ncc(C#N)c3n1)cn2C | 2.85 |
| CC(=O)Nc1ccc2cnn(-c3cc(NC4CC4)n4ncc(C#N)c4n3)c2c1 | 3.57 |
| CC(=O)Nc1ccc2[nH]cc(-c3cc(NC4CC4)n4ncc(C#N)c4n3)c2c1 | 2.85 |
| CC(=O)Nc1ccc2ccn(-c3cc(NC4CC4)n4ncc(C#N)c4n3)c2c1 | 2.72 |
| CC(=O)Nc1ccc2ccn(-c3cc(NC4COC4)n4ncc(C#N)c4n3)c2c1 | 3.34 |
| CC(=O)Nc1ccc2ccn(-c3cc(Nc4ccn(C)n4)n4ncc(C#N)c4n3)c2c1 | 2.66 |
| N#Cc1cnn2c(NC3CC3)cc(-n3ccc4ccc(CO)cc43)nc12 | 4.00 |
| CC(=O)Nc1ccc2c(c1)N(c1cc(NC3CC3)n3ncc(C#N)c3n1)CC2 | 2.72 |
| COc1ccc(-c2cc(Nc3ccn(C)n3)n3ncc(C#N)c3n2)cc1 | 3.65 |
| CC(=O)Nc1cnc2ccn(-c3cc(NC4CC4)n4ncc(C#N)c4n3)c2c1 | 3.48 |
